Entries and their inhibition at 10 µM values follow.
target: N-type Ca2+ channels in IMR-32 cells (Homo sapiens, UniProt Q00975); construct: host or cells: IMR-32 cells, differentiated with dibutyryl cAMP and bromodeoxyuridine; assay: Inhibition of N-type calcium flux in IMR-32 cells (Indo-1 fluorescence, nitrendipine present); type: cell-based; conditions: IMR-32
Sequence (Q00975 whole entry): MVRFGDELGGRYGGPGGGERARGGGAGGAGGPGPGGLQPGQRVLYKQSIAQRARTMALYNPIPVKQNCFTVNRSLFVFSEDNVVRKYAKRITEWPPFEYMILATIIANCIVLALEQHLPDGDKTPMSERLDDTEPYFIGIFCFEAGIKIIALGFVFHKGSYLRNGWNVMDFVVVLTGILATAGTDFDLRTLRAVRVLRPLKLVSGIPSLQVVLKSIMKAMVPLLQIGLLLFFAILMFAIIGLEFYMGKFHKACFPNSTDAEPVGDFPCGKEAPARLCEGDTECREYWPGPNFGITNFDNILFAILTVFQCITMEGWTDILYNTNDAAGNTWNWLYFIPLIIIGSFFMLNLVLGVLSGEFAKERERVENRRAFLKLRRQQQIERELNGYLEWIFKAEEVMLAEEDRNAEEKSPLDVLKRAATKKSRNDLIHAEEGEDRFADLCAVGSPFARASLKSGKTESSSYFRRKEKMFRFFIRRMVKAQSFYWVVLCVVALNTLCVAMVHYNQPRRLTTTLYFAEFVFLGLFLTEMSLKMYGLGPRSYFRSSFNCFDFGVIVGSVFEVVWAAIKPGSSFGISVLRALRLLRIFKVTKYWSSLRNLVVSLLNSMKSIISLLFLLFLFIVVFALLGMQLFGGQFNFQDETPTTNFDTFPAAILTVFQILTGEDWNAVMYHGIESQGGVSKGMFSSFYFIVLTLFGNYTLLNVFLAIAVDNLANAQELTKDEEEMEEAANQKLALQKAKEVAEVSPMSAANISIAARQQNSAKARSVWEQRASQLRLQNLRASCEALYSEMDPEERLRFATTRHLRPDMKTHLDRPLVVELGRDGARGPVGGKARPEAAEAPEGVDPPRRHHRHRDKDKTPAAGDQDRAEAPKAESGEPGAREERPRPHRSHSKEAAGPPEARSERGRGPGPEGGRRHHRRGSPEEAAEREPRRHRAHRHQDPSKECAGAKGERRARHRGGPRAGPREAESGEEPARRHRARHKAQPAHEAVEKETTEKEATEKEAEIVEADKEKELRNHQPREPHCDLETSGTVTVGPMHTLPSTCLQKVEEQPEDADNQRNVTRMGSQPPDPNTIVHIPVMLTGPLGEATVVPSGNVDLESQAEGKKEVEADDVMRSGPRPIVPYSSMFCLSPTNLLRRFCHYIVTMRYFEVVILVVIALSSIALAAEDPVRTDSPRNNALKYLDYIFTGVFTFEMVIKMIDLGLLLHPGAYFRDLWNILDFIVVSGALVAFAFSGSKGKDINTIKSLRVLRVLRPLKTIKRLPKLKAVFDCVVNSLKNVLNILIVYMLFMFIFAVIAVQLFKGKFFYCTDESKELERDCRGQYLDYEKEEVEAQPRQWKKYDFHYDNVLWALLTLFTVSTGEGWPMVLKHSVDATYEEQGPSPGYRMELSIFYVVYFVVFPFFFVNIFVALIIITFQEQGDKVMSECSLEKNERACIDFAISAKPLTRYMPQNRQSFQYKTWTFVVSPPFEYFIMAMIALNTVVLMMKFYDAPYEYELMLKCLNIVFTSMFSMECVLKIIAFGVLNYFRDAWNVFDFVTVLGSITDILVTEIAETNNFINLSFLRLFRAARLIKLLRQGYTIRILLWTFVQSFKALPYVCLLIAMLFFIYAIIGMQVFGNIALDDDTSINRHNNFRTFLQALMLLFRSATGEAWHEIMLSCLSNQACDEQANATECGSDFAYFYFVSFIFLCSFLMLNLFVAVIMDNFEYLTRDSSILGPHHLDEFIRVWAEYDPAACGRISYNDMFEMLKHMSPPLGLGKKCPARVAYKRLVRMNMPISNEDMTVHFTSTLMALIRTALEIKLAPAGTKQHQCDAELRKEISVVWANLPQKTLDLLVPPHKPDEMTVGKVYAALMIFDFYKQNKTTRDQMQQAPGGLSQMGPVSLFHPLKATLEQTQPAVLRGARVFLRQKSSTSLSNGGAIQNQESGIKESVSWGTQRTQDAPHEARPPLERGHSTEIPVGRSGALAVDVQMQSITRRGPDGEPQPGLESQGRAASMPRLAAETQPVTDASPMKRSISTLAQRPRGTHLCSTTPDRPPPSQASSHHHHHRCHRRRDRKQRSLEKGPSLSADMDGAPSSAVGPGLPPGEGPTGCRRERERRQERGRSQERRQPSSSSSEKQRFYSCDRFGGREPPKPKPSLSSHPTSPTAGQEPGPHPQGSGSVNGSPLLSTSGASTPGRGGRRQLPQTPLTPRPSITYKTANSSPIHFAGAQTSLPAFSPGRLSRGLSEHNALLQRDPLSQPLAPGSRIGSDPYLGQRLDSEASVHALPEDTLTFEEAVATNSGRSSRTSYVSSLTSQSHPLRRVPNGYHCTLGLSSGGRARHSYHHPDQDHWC
Sequence (P54289 25-956 partner limits assumed): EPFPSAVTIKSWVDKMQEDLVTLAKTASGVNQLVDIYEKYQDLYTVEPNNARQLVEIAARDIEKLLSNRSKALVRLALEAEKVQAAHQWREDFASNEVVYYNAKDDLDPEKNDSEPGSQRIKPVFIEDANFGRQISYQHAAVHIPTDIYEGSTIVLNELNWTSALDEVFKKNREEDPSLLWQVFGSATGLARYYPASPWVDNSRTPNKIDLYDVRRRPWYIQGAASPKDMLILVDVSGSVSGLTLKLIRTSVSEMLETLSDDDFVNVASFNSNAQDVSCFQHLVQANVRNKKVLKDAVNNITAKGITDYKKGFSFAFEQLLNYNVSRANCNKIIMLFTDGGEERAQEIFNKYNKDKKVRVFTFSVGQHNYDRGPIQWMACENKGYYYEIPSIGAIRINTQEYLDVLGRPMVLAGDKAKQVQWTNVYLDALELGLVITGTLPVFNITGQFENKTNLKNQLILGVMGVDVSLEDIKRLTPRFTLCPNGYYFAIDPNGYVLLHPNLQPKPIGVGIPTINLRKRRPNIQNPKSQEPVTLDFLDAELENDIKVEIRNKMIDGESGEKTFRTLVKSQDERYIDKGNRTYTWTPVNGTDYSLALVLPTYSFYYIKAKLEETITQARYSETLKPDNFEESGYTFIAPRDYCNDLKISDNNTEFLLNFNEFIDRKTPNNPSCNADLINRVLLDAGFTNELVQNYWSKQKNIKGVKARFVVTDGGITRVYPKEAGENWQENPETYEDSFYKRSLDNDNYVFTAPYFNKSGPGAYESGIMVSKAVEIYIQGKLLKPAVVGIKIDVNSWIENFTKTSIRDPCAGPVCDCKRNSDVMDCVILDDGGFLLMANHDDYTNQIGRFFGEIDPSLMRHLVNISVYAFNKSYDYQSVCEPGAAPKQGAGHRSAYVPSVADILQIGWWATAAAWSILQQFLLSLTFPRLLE
Sequence (P54289 957-1103 partner limits assumed): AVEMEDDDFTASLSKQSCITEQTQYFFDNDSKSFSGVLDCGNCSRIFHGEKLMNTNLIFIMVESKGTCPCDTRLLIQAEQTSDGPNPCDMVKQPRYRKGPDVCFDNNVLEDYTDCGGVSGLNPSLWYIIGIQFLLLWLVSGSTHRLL
Sequence (P54284 whole entry partner): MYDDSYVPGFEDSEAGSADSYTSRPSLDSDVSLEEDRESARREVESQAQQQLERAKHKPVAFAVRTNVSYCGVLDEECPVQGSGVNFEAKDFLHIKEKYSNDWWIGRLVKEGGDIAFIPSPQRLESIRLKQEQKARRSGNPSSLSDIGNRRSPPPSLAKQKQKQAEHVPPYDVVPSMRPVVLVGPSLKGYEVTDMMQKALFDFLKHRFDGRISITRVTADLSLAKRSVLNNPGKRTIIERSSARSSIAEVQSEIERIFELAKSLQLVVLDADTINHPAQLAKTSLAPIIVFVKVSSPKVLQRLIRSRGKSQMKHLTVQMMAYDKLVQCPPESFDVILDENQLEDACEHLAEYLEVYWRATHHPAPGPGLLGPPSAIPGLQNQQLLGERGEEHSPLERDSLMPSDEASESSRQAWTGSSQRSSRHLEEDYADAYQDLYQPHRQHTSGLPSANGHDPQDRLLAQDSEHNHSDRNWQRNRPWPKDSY

Molecule: CC(C)C[C@H](NC(=O)N1CCCCCC1)C(=O)N[C@@H](Cc1ccc(C=Cc2ccccc2)cc1)C(=O)NC(C)(C)C [Example 141]
inhibition at 10 µM: 66%
//
Molecule: Cc1noc(C)c1S(=O)(=O)N[C@@H](CC(C)C)C(=O)N[C@@H](Cc1ccc(OCc2ccccc2)cc1)C(=O)OC(C)(C)C [Example 111]
inhibition at 10 µM: 96%
//
Molecule: CC(C)C[C@H](NC(=O)N1CCCCCC1)C(=O)N[C@H](Cc1ccc(OCc2ccccc2)cc1)C(=O)OC(C)(C)C [Example 2]
inhibition at 10 µM: 90%
//
Molecule: CC(C)C[C@H](NC(=O)N1CCCCCC1)C(=O)N[C@@H](Cc1ccc(OCc2ccccc2)cc1)C(=O)NCC1CCCCC1 [Example 205]
inhibition at 10 µM: 72%

---

target: N-type Ca2+ channels in IMR-32 cells (Homo sapiens, UniProt Q00975); construct: host or cells: IMR-32 cells, differentiated with dibutyryl cAMP and bromodeoxyuridine; assay: Inhibition of N-type calcium flux in IMR-32 cells (Indo-1 fluorescence, nitrendipine present); type: cell-based; settings: 10 μM
Metric: Inhibition of Calcium Flux in IMR-32 Cells % Inhibition at 10 μM (%)

Molecule: CC(C)C[C@H](NC(=O)N1CCCCCC1)C(=O)N[C@@H](Cc1ccc(OCc2ccccc2)cc1)C(=O)NCCC#N (relative stereo)
Result Unit: %
Experimental Result: 93

Molecule: CCOc1ccc(C(=O)N[C@@H](CC(C)C)C(=O)N[C@@H](Cc2ccc(OCc3ccccc3)cc2)C(=O)OC(C)(C)C)cc1 (relative stereo)
Result Unit: %
Experimental Result: 48

Molecule: CC(C)C[C@H](NC(=O)c1cccnc1)C(=O)N[C@@H](Cc1ccc(OCc2ccccc2)cc1)C(=O)OC(C)(C)C (relative stereo)
Result Unit: %
Experimental Result: 60

Molecule: CC(C)C[C@H](NS(=O)(=O)c1cccs1)C(=O)N[C@@H](Cc1ccc(OCc2ccccc2)cc1)C(=O)OC(C)(C)C (relative stereo)
Result Unit: %
Experimental Result: 57

Molecule: CC(C)C[C@H](NC(=S)Nc1ccc(Br)cc1)C(=O)N[C@@H](Cc1ccc(OCc2ccccc2)cc1)C(=O)OC(C)(C)C (relative stereo)
Result Unit: %
Experimental Result: 68

Molecule: CC(C)C[C@H](NC(=O)N1CCCCCC1)C(=O)N[C@@H](Cc1ccc(OCc2c(Cl)cccc2Cl)cc1)C(=O)NC(C)(C)C (relative stereo)
Result Unit: %
Experimental Result: 76

---

molecular target: N-type Ca2+ channels in IMR-32 cells (Homo sapiens); test: Inhibition of N-type calcium flux in IMR-32 cells (Indo-1 fluorescence, nitrendipine present); conditions: IMR-32 cells, 5 μM nitrendipine, K+ depolarization
One threshold, 2000 nM, splits the recorded IC50 values: lower ones are 1, equal or higher ones are 0.

Line Notation: CC(C)(C)OC(=O)[C@H](Cc1ccc(OCc2ccccc2)cc1)NC(=O)[C@H](Cc1ccccc1)NC(=O)N1CCCCCC1
Group: 1
--
Line Notation: CC(C)C[C@H](NS(=O)(=O)c1ccc(Br)cc1)C(=O)N[C@@H](Cc1ccc(OCc2ccccc2)cc1)C(=O)OC(C)(C)C
Group: 1
--
Line Notation: CC(=O)N1CCN(C(=O)[C@H](Cc2ccc(OCc3ccccc3)cc2)NC(=O)[C@H](CC(C)C)NC(=O)N2CCCCCC2)CC1
Group: 0
--
Line Notation: CC(=O)c1ccc(NC(=O)[C@H](Cc2ccc(OCc3ccccc3)cc2)NC(=O)[C@H](CC(C)C)NC(=O)N2CCCCCC2)cc1
Group: 1
--
Line Notation: CC(C)C[C@H](NC(=O)N1CCOCC1)C(=O)N[C@@H](Cc1ccc(OCc2ccccc2)cc1)C(=O)NCCN1CCCCC1
Group: 0
--
Line Notation: CC(C)C[C@H](NC(=O)N1CCCCCC1)C(=O)N[C@@H](Cc1ccc(OCc2ccccc2)cc1)C(=O)NCCN(C)C
Group: 0
